- testMethodNotes: Luminescence Cell-Based Dose Response HTS to Identify Activators of Luciferase Translation or Activity in H4 […] Cells. [Related pubchem assays: 1829 (Project Summary), 1814 (Primary HTS)]
- Assay type: functional
The source made the active and inactive calls.
EC50 reference

Use these answered entries as a reference point.
Cc1cc2ncn(CCOc3ccccc3)c2cc1C :: 39 µM (active)
COc1ccc(NC(=O)C2C(=O)N(CCO)C3(C)CC2c2ccccc2O3)cc1 (centres undefined) :: 14.8 µM (active)
O=C(NN=C(NS(=O)(=O)c1ccc(Cl)cc1)c1ccccc1)c1cccc(Cl)c1 :: 7.54 µM (active)

-- ask Determine its reported EC50: CCOC(=O)CSC1=NC(=O)/C(=C\c2ccc(OC(C)=O)cc2)S1
-- reply 10.4 µM (active)

====

- subjectOfTest: Calpain-2 catalytic subunit (Sus scrofa, UniProt P43367)
- Sequence (P43367 whole entry): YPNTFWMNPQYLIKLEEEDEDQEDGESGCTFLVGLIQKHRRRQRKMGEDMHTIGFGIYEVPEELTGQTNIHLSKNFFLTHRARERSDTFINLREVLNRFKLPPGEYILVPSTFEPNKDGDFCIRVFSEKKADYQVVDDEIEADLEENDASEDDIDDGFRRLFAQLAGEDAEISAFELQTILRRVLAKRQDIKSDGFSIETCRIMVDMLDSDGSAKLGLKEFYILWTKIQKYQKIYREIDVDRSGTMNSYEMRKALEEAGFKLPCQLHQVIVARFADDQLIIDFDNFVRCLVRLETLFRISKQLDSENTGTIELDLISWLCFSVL
- testMethodNotes: m-calpain protease blockers, concentration series – biochemical, fluorogenic peptide substrate, dose response (AID 1420)
- Assay type: functional
Parameter: IC50. Scope: all listed entries.

Cc1cc(C(=O)O)ccc1-n1c(C)cc(/C=C(/C#N)C(=O)Nc2ccccc2)c1C :: 12.6 µM (not active)
COC(=O)c1cccc(NC(=O)c2cccc(OC)c2)c1 :: 14.6 µM (not active)
CCOC(=O)c1c(C)[nH]c(C(=O)COC(=O)C23CC4CC(CC(Cl)(C4)C2)C3)c1C :: 4.08 µM (not active)
CC(=O)c1c(C(C)=O)c(C)n(C(c2ccccc2)c2ccccc2)c1C :: > 50 µM (not active)
O=C(O)CC(NC(=O)C1c2ccccc2Oc2ccccc21)c1ccc(OC2CCCC2)cc1 (configuration not stated) :: 6.06 µM (not active)

-- ask Give the reported value of IC50 for this record: O=C(Nc1ccccc1C(=O)O)c1cccc(NC(=O)c2ccc(Br)o2)c1
-- reply 12.1 µM (not active)

-- ask Supply measured IC50 of COc1cccc(NC(S)=NCCC(c2ccccc2)c2ccccc2)c1 in your reply.
-- reply 3.72 µM (not active)

====

- subjectOfTest: Cytochrome P450 3A4 (Homo sapiens, UniProt P08684)
- Sequence (P08684 whole entry): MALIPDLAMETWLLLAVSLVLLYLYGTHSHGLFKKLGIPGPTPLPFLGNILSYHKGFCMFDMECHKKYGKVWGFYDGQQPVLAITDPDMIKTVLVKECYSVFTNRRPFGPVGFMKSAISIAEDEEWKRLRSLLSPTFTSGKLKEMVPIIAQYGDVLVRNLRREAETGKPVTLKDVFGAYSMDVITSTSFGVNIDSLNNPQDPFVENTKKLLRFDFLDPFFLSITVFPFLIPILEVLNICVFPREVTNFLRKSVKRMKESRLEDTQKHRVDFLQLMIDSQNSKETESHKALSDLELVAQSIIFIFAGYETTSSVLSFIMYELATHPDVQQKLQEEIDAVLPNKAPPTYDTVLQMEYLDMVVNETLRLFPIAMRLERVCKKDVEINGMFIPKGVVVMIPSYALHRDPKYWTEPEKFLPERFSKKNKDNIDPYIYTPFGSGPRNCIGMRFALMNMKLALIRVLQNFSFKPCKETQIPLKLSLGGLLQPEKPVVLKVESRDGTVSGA
- assayConditions: Potency
The source made the active and inactive calls.
AC50 values by entry

Consider the reported AC50 for these compounds:
C=C(C)C(O)/C=C/C=C/c1ccccc1 (configuration not stated) :: 3.98 µM (inconclusive)
N=C1C=CC(=C(c2cccc(N)c2)c2cccc(N)c2)C=C1 :: 5.01 µM (active)
CC(=O)OC1CC2C(C)(C)C(O)C=C[C@@]2(C)C2CC[C@@]3(C)C(c4ccoc4)OC(=O)C4OC43[C@]12C (some centres not stated) :: 12.6 µM (inconclusive)
CC(C)CC1(C(=O)NCc2ccccn2)C=CCN1C(=O)c1ccccc1 (configuration not stated) :: 15.8 µM (inconclusive)
C=CC(C1=CC(=O)C=CC1=O)c1ccccc1 (configuration not stated) [DALBERGIONE] :: 31.6 µM (inconclusive)

-- ask State, in one line, measured AC50 of COc1cccc(O)c1O [3-METHOXYCATECHOL]
-- reply 20 µM (inconclusive)

-- ask Look up AC50 of CC(=O)OC1CCC2(C)C3=C(CCC2C1(C)C)[C@]1(C)CCC(C(C)CCC=C(C)C)[C@]1(C)CC3 (some centres not stated) and report it.
-- reply 31.6 µM (inconclusive)

====

- subjectOfTest: Microphthalmia-associated transcription factor (Homo sapiens, UniProt O75030)
- Sequence (O75030 whole entry): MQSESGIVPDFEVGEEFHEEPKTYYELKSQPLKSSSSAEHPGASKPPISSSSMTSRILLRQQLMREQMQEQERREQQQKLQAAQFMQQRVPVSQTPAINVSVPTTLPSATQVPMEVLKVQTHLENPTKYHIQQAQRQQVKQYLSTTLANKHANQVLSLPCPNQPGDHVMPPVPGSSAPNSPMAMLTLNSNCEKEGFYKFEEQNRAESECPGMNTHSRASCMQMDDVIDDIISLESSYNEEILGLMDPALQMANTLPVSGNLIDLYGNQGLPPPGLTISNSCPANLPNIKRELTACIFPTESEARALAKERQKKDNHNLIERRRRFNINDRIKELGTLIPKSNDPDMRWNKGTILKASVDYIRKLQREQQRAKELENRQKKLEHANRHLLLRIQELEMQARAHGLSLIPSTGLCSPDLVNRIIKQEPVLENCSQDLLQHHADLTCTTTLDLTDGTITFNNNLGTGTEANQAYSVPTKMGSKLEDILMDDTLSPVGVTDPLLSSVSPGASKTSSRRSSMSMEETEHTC
- testMethodNotes: reducers of TRPM1 reporter luminescence, concentration series – cell-based, SK-MEL-5, cherry-picked, set 3, MITF inhibitor project, dose response (AID 493073);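 further: SK-MEL-5 melanoma cells with luciferase driven by the MITF target TRPM1 promoter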
- Format: functional
Calls of active or inactive are those of the source.
Measured AC50, listed per entry.

CCOC(=O)CSC1=NC(=O)/C(=C\c2ccc(OC(C)=O)cc2)S1 :: 5.12 µM (active)

-- ask Specify AC50 for O=[N+]([O-])c1ccc(/C=N/n2cnc3ccccc32)s1 and stop.
-- reply 6.25 µM (active)

-- ask Determine from records and report AC50 for Cc1ccc(OCC(=O)N/N=C/c2ccc([N+](=O)[O-])o2)cc1
-- reply 8.9 µM (active)

-- ask Return AC50 (reported value) for this compound: CS(=O)(=O)N1CCN(c2ccc(NC(=O)c3ccc([N+](=O)[O-])o3)cc2)CC1
-- reply 4.92 µM (active)

-- ask Report measured AC50; entry is S=C=Nc1cccc(C2(N3CCCCC3)CCCCC2)c1 [METAPHIT METHANESULFONATE]
-- reply 7.36 µM (active)

-- ask Respond only with AC50 recorded for CC1CN(C(=O)CCC(=O)NCCCN2CCC(Cc3ccccc3)CC2)c2cc(Cl)ccc2O1 (configuration not stated)
-- reply 16.2 µM (active)

-- ask Please report the measured AC50 for Cc1ccc(-c2c[n+](Cc3ccc(Cl)cc3)c3n2CCC3)cc1
-- reply 14.2 µM (active)

====

Entries and their EC50 values follow.
- System: Streptococcus sp. 'group A'
- testMethodNotes: Streptococcus pyogenes SK(-)GAS viability under kanamycin – luminescence, BacTiterGlo, confirmation, counter-screen for streptokinase expression inhibitor project, dose response (AID 1900)
- Type: functional, organism-based
Active and inactive are the calls of the source.

Consider the reported EC50 for these compounds:
O=c1/c(=C\c2cccc(O)c2)sc2nc(-c3ccccc3)c(-c3ccccc3)n12 :: 3010 nM (active)
CC(C)(O)c1ccccc1CC[C@@H](SCC1(CC(=O)O)CC1)c1cccc(/C=C/c2ccc3ccc(Cl)cc3n2)c1 [MONTELUKAST SODIUM] :: 1190 nM (active)
CC(C)/N=c1\cc2n(-c3ccc(Cl)cc3)c3ccccc3nc-2cc1Nc1ccc(Cl)cc1 [CLOFAZIMINE] :: 1860 nM (active)

Query compound follows.
-- ask Note EC50 for the compound shown: O=C(/C=C/c1ccccc1)NC(NC(=S)Nc1ccc(Cl)cc1)C(Cl)(Cl)Cl (centres undefined)
-- reply 5790 nM (active)

====

- subjectOfTest: Corticotropin-releasing factor receptor 2/Corticotropin-releasing factor-binding protein (Homo sapiens, UniProt P24387+Q13324)
- Sequence (Q13324 whole entry): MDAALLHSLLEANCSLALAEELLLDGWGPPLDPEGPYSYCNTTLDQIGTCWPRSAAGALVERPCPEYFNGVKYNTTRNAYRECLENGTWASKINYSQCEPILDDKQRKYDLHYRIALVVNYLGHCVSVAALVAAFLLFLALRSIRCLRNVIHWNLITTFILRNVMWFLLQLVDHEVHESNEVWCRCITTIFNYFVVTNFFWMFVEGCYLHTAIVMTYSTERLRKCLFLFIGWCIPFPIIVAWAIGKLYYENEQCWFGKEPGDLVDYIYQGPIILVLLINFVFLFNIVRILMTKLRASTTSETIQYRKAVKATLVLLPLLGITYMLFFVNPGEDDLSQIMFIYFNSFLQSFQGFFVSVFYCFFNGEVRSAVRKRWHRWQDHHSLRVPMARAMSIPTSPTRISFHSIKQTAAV
- Sequence (P24387 whole entry): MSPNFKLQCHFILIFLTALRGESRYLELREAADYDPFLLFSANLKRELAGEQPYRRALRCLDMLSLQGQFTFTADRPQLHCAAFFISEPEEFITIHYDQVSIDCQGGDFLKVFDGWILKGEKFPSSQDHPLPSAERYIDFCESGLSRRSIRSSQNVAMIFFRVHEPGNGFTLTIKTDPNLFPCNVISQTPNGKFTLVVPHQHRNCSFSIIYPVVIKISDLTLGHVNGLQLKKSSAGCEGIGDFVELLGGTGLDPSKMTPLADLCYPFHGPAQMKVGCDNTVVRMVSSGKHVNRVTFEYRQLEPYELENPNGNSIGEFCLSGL
- testMethodNotes: Dose Response confirmation of uHTS hits for small molecule antagonists of the CRF-binding protein and CRF-R2 receptor complex.
- Assay type: functional
- assayConditions: read-out: IC50_Mean
Active and inactive are the calls of the source.
API: response.call in active, inactive

Some solved entries appear below for comparison.
Cn1nc(N)c2ncc(C(Cl)(Cl)Cl)nc21 :: inactive
COC(=O)C(NC(=O)c1ccc(OC)cc1)(Nc1ncc(S(=O)(=O)c2ccc([N+](=O)[O-])cc2)s1)C(F)(F)F (stereo unspecified) :: active
COc1ccc2[nH]cc(CCN=C(S)NC3CCCC3)c2c1 :: inactive
CC1=C(C(=O)OC(C)(C)C)C(c2cccc3ccccc23)NC(=O)N1 (stereo unspecified) :: inactive
CCOC(=O)c1c(NC(=O)c2c(Br)cnn2C)c(C#N)nn1-c1ccccc1 :: active

Proceed to the following item.
-- ask Would you mind telling me which call this test gave CCN(CCO)Cc1csc2cccc(Br)c12 ?
-- reply inactive

====

- subjectOfTest: Cytochrome P450 1A2 (Homo sapiens, UniProt P05177)
- Sequence (P05177 whole entry): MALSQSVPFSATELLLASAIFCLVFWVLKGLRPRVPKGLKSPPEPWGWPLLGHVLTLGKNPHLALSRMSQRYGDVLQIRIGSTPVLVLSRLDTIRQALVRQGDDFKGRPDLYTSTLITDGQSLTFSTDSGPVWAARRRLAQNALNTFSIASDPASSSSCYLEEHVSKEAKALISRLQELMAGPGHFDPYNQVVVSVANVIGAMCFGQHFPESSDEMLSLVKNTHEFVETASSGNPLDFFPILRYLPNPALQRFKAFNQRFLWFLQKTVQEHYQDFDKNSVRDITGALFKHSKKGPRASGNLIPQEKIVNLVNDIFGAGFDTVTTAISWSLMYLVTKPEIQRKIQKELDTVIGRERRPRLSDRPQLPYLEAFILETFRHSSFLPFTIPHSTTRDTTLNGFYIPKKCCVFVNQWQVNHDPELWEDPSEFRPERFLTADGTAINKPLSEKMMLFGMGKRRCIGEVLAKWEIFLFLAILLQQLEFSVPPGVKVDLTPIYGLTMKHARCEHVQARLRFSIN
propertyName: AC50

Known AC50 results, listed for orientation:
CCOC(=O)COc1cc(OCC(=O)OCC)c2c(=O)cc(-c3ccccc3)oc2c1 :: 15.8 µM (inconclusive)
O=C(O)c1nn(Cc2ccc(Cl)cc2Cl)c2ccccc12 :: 39.8 µM (inconclusive)
COc1ncc2nc(C)c(=O)n(CCC#N)c2n1 :: 15.8 µM (inconclusive)

-- ask Fetch value of AC50 on Cytochrome P450 1A2 (Homo sapiens, UniProt P05177) for COc1ccc(NC(=O)N2CC[C@@]3(CCCN(C(=O)c4ccc(OC)cc4)C3)C2)cc1 .
-- reply 25.1 µM (inconclusive)

-- ask Under Cytochrome P450 1A2 (Homo sapiens, UniProt P05177), report AC50 for COC(=O)c1cc(NS(=O)(=O)c2ccc(N3CCCCCC3)c([N+](=O)[O-])c2)cc(C(=O)OC)c1
-- reply 14.1 µM (inconclusive)

-- ask # return AC50 of Cc1nn(-c2ccccc2)c(-c2ccccc2)c1C(=O)O (system: Cytochrome P450 1A2 (Homo sapiens, UniProt P05177));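 further: PubChem cytochrome P450 panel assay, CYP1A2 panel member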
-- reply 25.1 µM (inconclusive)

Where do these numbers come from? They come from ChEMBL document CHEMBL1201862.
